- Experiment notes: activity coefficient (dimensionless); of the first substance listed, at infinite dilution; xn = mol fraction of the nth substance listed
- Experimental conditions: 358.15 K; 101 kPa; Liquid; Chromatography; x1 = 0
Measurement type: activity coefficient
Please reply with the number alone, leaving off any unit.

Request: Specify activity coefficient for Cc1ccccc1C [1,2-dimethylbenzene] + CCCC[n+]1ccc(C)cc1.N#CC(=C=[N-])C#N and stop.
Result: 1.61

Request: Specify activity coefficient for CCCCCCCC [octane] + CCCC[n+]1ccc(C)cc1.N#CC(=C=[N-])C#N and stop.
Result: 36.3

Request: Specify activity coefficient for CC(C)=O [acetone] + CCCC[n+]1ccc(C)cc1.N#CC(=C=[N-])C#N and stop.
Result: 0.672

Request: Specify activity coefficient for CO [methanol] + CCCC[n+]1ccc(C)cc1.N#CC(=C=[N-])C#N and stop.
Result: 0.593

Request: Specify activity coefficient for Cc1ccc(C)cc1 [1,4-dimethylbenzene] + CCCC[n+]1ccc(C)cc1.N#CC(=C=[N-])C#N and stop.
Result: 1.84

Request: Specify activity coefficient for CCCCCCCCCC [decane] + CCCC[n+]1ccc(C)cc1.N#CC(=C=[N-])C#N and stop.
Result: 67.7

Request: Specify activity coefficient for CC#N [acetonitrile] + CCCC[n+]1ccc(C)cc1.N#CC(=C=[N-])C#N and stop.
Result: 0.604

Request: Specify activity coefficient for CCCCO [butan-1-ol] + CCCC[n+]1ccc(C)cc1.N#CC(=C=[N-])C#N and stop.
Result: 1.09

Request: Specify activity coefficient for CCCCCC [hexane] + CCCC[n+]1ccc(C)cc1.N#CC(=C=[N-])C#N and stop.
Result: 20

Request: Specify activity coefficient for CCCCCCCCC [nonane] + CCCC[n+]1ccc(C)cc1.N#CC(=C=[N-])C#N and stop.
Result: 47.6

Request: Specify activity coefficient for C1CCOC1 [tetrahydrofuran] + CCCC[n+]1ccc(C)cc1.N#CC(=C=[N-])C#N and stop.
Result: 0.872

Request: Specify activity coefficient for CCCCCCC [heptane] + CCCC[n+]1ccc(C)cc1.N#CC(=C=[N-])C#N and stop.
Result: 25.8

Request: Specify activity coefficient for CC1CCCCC1 [methylcyclohexane] + CCCC[n+]1ccc(C)cc1.N#CC(=C=[N-])C#N and stop.
Result: 12.7

Request: Specify activity coefficient for CCO [ethanol] + CCCC[n+]1ccc(C)cc1.N#CC(=C=[N-])C#N and stop.
Result: 0.784

Request: Specify activity coefficient for Cc1ccccc1 [toluene] + CCCC[n+]1ccc(C)cc1.N#CC(=C=[N-])C#N and stop.
Result: 1.36

Request: Specify activity coefficient for C#CCCCCC [1-heptyne] + CCCC[n+]1ccc(C)cc1.N#CC(=C=[N-])C#N and stop.
Result: 4.34

Request: Specify activity coefficient for CCC[N+](=O)[O-] [1-nitropropane] + CCCC[n+]1ccc(C)cc1.N#CC(=C=[N-])C#N and stop.
Result: 0.783

Request: Specify activity coefficient for CCC(=O)CC [pentan-3-one] + CCCC[n+]1ccc(C)cc1.N#CC(=C=[N-])C#N and stop.
Result: 1.07

Request: Specify activity coefficient for C1CCCCC1 [cyclohexane] + CCCC[n+]1ccc(C)cc1.N#CC(=C=[N-])C#N and stop.
Result: 9.07

Request: Specify activity coefficient for O [water] + CCCC[n+]1ccc(C)cc1.N#CC(=C=[N-])C#N and stop.
Result: 0.826

Request: Specify activity coefficient for C=CCCCCCC [oct-1-ene] + CCCC[n+]1ccc(C)cc1.N#CC(=C=[N-])C#N and stop.
Result: 18.3

Request: Specify activity coefficient for C1CCCCCC1 [cycloheptane] + CCCC[n+]1ccc(C)cc1.N#CC(=C=[N-])C#N and stop.
Result: 10.6

Request: Specify activity coefficient for C1COCCO1 [1,4-dioxane] + CCCC[n+]1ccc(C)cc1.N#CC(=C=[N-])C#N and stop.
Result: 0.68

Request: Specify activity coefficient for c1ccncc1 [pyridine] + CCCC[n+]1ccc(C)cc1.N#CC(=C=[N-])C#N and stop.
Result: 0.542

Request: Specify activity coefficient for Cc1cccc(C)c1 [1,3-dimethylbenzene] + CCCC[n+]1ccc(C)cc1.N#CC(=C=[N-])C#N and stop.
Result: 1.88

Request: Specify activity coefficient for c1ccsc1 [thiophene] + CCCC[n+]1ccc(C)cc1.N#CC(=C=[N-])C#N and stop.
Result: 0.733

Request: Specify activity coefficient for CC(C)CO [2-methyl-1-propanol] + CCCC[n+]1ccc(C)cc1.N#CC(=C=[N-])C#N and stop.
Result: 1.06

Request: Specify activity coefficient for c1ccccc1 [benzene] + CCCC[n+]1ccc(C)cc1.N#CC(=C=[N-])C#N and stop.
Result: 1

Request: Specify activity coefficient for C=CCCCC [hex-1-ene] + CCCC[n+]1ccc(C)cc1.N#CC(=C=[N-])C#N and stop.
Result: 9.17

Request: Specify activity coefficient for CC(C)O [propan-2-ol] + CCCC[n+]1ccc(C)cc1.N#CC(=C=[N-])C#N and stop.
Result: 0.961

Request: Specify activity coefficient for CCc1ccccc1 [ethylbenzene] + CCCC[n+]1ccc(C)cc1.N#CC(=C=[N-])C#N and stop.
Result: 1.98

Request: Specify activity coefficient for CCOC(C)=O [ethyl acetate] + CCCC[n+]1ccc(C)cc1.N#CC(=C=[N-])C#N and stop.
Result: 1.42

Request: Specify activity coefficient for CCCO [propan-1-ol] + CCCC[n+]1ccc(C)cc1.N#CC(=C=[N-])C#N and stop.
Result: 0.906

Request: Specify activity coefficient for CCCC(C)=O [pentan-2-one] + CCCC[n+]1ccc(C)cc1.N#CC(=C=[N-])C#N and stop.
Result: 1.07

Request: Specify activity coefficient for C#CCCCC [1-hexyne] + CCCC[n+]1ccc(C)cc1.N#CC(=C=[N-])C#N and stop.
Result: 3.25
